Listed molecules paired with reported pIC50
# assayed target: muscarinic acetylcholine receptors
# measurement description: inhibition of specific binding of ^3 H-Oxotremorine-M (^3 H-Oxo) to rat cortex
# reported conditions: ^3 H-Oxotremorine 1.0 nM, 30 min, 25° C.
pIC50 here is simply -log10 of the concentration when that concentration is written in mol/L.

Record excerpt, results attached:
molecule	pIC50
CCCCCCSc1nccnc1OC1CN2CCC1CC2 (racemic)	7.60
Clc1nccnc1O[C@H]1CN2CCC[C@@H]1C2 (relative stereo)	6.92
CCCSc1nccnc1OC1CN2CCC1CC2 (racemic)	7.85

IN: // fetch muscarinic acetylcholine receptors pIC50 for CCCCOc1nccnc1O[C@H]1CN2CCC[C@@H]1C2 (relative stereo)
OUT: 8.31

IN: Same again, this time with Clc1cncc(O[C@H]2CN3CCC[C@@H]2C3)n1 (relative stereo)
OUT: 6.85

IN: Check FC(F)(F)CCCSc1nccnc1O[C@H]1CN2CCC[C@@H]1C2 (relative stereo) too.
OUT: 8.49

IN: Record: `CCCCSc1nccnc1OCCN(C)C`
OUT: 7.77

IN: // repeat for CC(C)CSc1nccnc1O[C@H]1CN2CCC[C@@H]1C2 (relative stereo) and report
OUT: 8.47

IN: Then this molecule: CCSc1nccnc1O[C@H]1CN2CCC[C@@H]1C2 (relative stereo)
OUT: 8.41

IN: And what about the molecule COc1nccnc1OC1CN2CCC1CC2 (racemic) ?
OUT: 6.45
